molecular target: ACSS2 (Homo sapiens, UniProt Q9NR19); experiment: biochemical;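 further: Cell-free human ACSS2 enzyme reaction with acetate, CoA and ATP, 90 min at 37 C, coupled to pyrophosphatase, phosphate release detected by Biomol Green absorbance at 620 nm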
Sequence (Q9NR19 whole entry): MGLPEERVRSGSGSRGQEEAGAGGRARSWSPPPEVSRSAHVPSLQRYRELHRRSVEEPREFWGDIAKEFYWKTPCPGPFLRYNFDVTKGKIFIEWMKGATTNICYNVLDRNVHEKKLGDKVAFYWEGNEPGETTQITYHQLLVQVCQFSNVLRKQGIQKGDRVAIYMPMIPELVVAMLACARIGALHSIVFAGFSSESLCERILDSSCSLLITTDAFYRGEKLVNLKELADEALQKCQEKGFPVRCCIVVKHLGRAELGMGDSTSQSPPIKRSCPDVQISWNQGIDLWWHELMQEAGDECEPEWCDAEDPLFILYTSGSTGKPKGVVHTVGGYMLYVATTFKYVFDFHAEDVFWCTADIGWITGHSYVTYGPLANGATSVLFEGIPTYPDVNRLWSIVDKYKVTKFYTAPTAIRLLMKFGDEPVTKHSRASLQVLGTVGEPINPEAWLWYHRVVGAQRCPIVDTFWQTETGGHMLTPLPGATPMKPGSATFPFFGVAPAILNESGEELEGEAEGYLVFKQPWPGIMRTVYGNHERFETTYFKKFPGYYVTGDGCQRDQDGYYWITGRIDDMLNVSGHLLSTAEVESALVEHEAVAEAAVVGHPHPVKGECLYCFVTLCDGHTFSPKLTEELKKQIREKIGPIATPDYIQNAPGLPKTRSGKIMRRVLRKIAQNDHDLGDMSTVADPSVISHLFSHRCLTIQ
measured.endpoint: IC50

compound: CCCn1ccc2ccc(N3N=C(C)C(C(=O)Nc4cccc(C(C)(F)F)c4)C3=O)cc21 (centres unmarked) [compound 363]
result: 0.01 to 6 nM

compound: CC1=NN(c2ccccc2)C(=O)C1C(=O)Nc1ccc2c(c1)C(=O)OC2 (centres unmarked) [compound 122]
result: 1000 to 100000 nM

compound: COc1ccc(N2N=C(C)C(C(=O)Nc3cccc(C(C)(F)F)c3)C2=O)cc1-c1nnc(C)o1 (centres unmarked) [compound 430]
result: 0.01 to 6 nM

compound: CC1=NN(c2ccc(OC(C)(C)C)cc2)C(=O)C1C(=O)Nc1cccc(C(C)(F)F)c1 (centres unmarked) [compound 441]
result: 0.01 to 6 nM

compound: COc1ccc(N2N=C(C)C(C(=O)Nc3cccc(C(C)(F)F)c3)C2=O)c(F)c1 (centres unmarked) [compound 451]
result: 0.01 to 6 nM

compound: CCCn1ccc2ccc(N3N=C(C)C(C(=O)Nc4cccc(C(F)(F)CC)c4)C3=O)cc21 (centres unmarked) [compound 359]
result: 0.01 to 6 nM

### Prompt Look at this compound and give its reported IC50. CC1=NN(c2cccc(S(=O)(=O)N(C)C)c2)C(=O)C1C(=O)Nc1cccc(-c2ncc[nH]2)c1 (centres unmarked) [compound 277]
### Response 6 to 100 nM

### Prompt Would you mind telling me what IC50 value was observed for CCC(F)(F)c1cccc(NC(=O)C2C(=O)N(c3ccc4ccn(C(C)C)c4c3)N=C2C)c1 (centres unmarked) [compound 360] ?
### Response 0.01 to 6 nM
